Target desc: T1, hVEGF-A (8-109) (human, UniProt P15692 214-315)
T1 sequence (looked up): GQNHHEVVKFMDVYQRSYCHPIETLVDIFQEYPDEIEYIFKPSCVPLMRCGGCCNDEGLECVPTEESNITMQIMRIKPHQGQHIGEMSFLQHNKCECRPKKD
Experiment: spot phage ELISA
Test readout: ELISA
Answer with the value's number alone.

Recorded results for 5 binders are shown here.
GCQDPTFNWALYCKQDSDCLAGCVCQMYQSCG (designed binder) [VEGF_CKP7] | 0.1
GCRDLTINWALFCKQDSDCLAGCVCQMFNSCG (designed binder) [VEGF_CKP7.73] | 1.2
GCDDPSFDWSVYCKQDSDCLAGCVCRMYDSCG (designed binder) [VEGF_CKP7.2] | 1.2
GCQDPKLNWAVYCKQDSDCLAGCVCQLFNSCG (designed binder) [VEGF_CKP7.88] | 0.5
GCLDPTVNWALFCKQDSDCLAGCVCQHYKTCG (designed binder) [VEGF_CKP7.81] | 1.1

Now, please, on to the next binder.
What does the data say about its ELISA? Entry: GCQDPTFNWAEYCKQDSDCLAGCVCQMYQSCG (designed binder) [VEGF_CKP7.35] 0.6
